tested on: 521955-158-R2-J5-PDC complex spheroid viability; assay: Anticancer human tumor 521955-158-R2-J5-PDC patient-derived pancreatic carcinoma cell line growth inhibition [GQUAD]; details: second compound 0.316 µM; first compound 0.0316 µM; active = viability on the fitted dose curve at most 10% of control; inactive = the rest;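 also: spheroids exposed to agents for one week before reading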
Possible outcomes: active, inactive

compound	assigned-class
C=CC(=O)N1CCN(c2nc(=O)n(-c3c(C)ccnc3C(C)C)c3nc(-c4c(O)cccc4F)c(F)cc23)C(C)C1 (stereo unspecified) + CN(C)c1ccc(Nc2c3ccc(NC(=O)CCN4CCCC4)cc3nc3cc(NC(=O)CCN4CCCC4)ccc23)cc1	inactive
Cn1ncnc1[C@H]1c2n[nH]c(=O)c3cc(F)cc(c23)N[C@@H]1c1ccc(F)cc1 + CN(C)c1ccc(Nc2c3ccc(NC(=O)CCN4CCCC4)cc3nc3cc(NC(=O)CCN4CCCC4)ccc23)cc1	inactive
COc1ccc([C@@H](O)c2cc(-c3ncnc4cc(N5CCOCC5)ccc34)c(F)cc2Cl)nn1 + Cc1[nH]c2ccc(F)cc2c1-c1nc2c3cccnc3c3ncccc3c2[nH]1	inactive
CC1COCCN1c1cc(C2(O)CC3CCC(C2)O3)c2cnn(-c3ccn[nH]3)c2n1 (stereo unspecified) + Cc1cnc(CNC(=O)c2c(=O)c3ccc(N4CCCN(C)CC4)nc3n3c2sc2ccccc23)cn1	inactive
COc1ccc([C@@H](O)c2cc(-c3ncnc4cc(N5CCOCC5)ccc34)c(F)cc2Cl)nn1 + CN(C)c1ccc(Nc2c3ccc(NC(=O)CCN4CCCC4)cc3nc3cc(NC(=O)CCN4CCCC4)ccc23)cc1	inactive
CCc1c2c(nc3ccc(O)cc13)-c1cc3c(c(=O)n1C2)COC(=O)[C@]3(O)CC + Cc1[nH]c2ccc(F)cc2c1-c1nc2c3cccnc3c3ncccc3c2[nH]1	active
CC[C@@]1(O)C(=O)OCc2c1cc1n(c2=O)Cc2cc3c(CN(C)C)c(O)ccc3nc2-1 + CN(C)c1ccc(Nc2c3ccc(NC(=O)CCN4CCCC4)cc3nc3cc(NC(=O)CCN4CCCC4)ccc23)cc1	inactive
CC[C@@]1(O)C(=O)OCc2c1cc1n(c2=O)Cc2cc3c(CN(C)C)c(O)ccc3nc2-1 + Cc1cnc(CNC(=O)c2c(=O)c3ccc(N4CCCN(C)CC4)nc3n3c2sc2ccccc23)cn1	inactive
COc1cccc2c1C(=O)c1c(O)c3c(c(O)c1C2=O)CC(O)(C(=O)CO)CC3OC1CC(N)C(O)C(C)O1 (stereo unspecified) + Cc1[nH]c2ccc(F)cc2c1-c1nc2c3cccnc3c3ncccc3c2[nH]1	inactive
O=c1[nH]cc(F)c(=O)[nH]1 + Cc1[nH]c2ccc(F)cc2c1-c1nc2c3cccnc3c3ncccc3c2[nH]1	inactive
CCCS(=O)(=O)Nc1ccc(F)c(C(=O)c2c[nH]c3ncc(-c4ccc(Cl)cc4)cc23)c1F + Cc1[nH]c2ccc(F)cc2c1-c1nc2c3cccnc3c3ncccc3c2[nH]1	inactive
COc1cccc2c1C(=O)c1c(O)c3c(c(O)c1C2=O)CC(O)(C(=O)CO)CC3OC1CC(N)C(O)C(C)O1 (stereo unspecified) + Cc1cnc(CNC(=O)c2c(=O)c3ccc(N4CCCN(C)CC4)nc3n3c2sc2ccccc23)cn1	inactive
CC1COCCN1c1cc(C2(S(C)(=N)=O)CC2)nc(-c2ccnc3[nH]ccc23)n1 (stereo unspecified) + CN(C)c1ccc(Nc2c3ccc(NC(=O)CCN4CCCC4)cc3nc3cc(NC(=O)CCN4CCCC4)ccc23)cc1	inactive
CCc1c2c(nc3ccc(O)cc13)-c1cc3c(c(=O)n1C2)COC(=O)[C@]3(O)CC + Cc1cnc(CNC(=O)c2c(=O)c3ccc(N4CCCN(C)CC4)nc3n3c2sc2ccccc23)cn1	active
CC1COCCN1c1cc(C2(S(C)(=N)=O)CC2)nc(-c2ccnc3[nH]ccc23)n1 (stereo unspecified) + Cc1cnc(CNC(=O)c2c(=O)c3ccc(N4CCCN(C)CC4)nc3n3c2sc2ccccc23)cn1	inactive
Nc1ccn(C2OC(CO)C(O)C2(F)F)c(=O)n1 (stereo unspecified) + Cc1cnc(CNC(=O)c2c(=O)c3ccc(N4CCCN(C)CC4)nc3n3c2sc2ccccc23)cn1	inactive
